system: Aspergillus fumigatus; assay: Minimum inhibitory concentration, YAG medium; assay type: cell-based; details: banded MIC grade
quantity: MIC grade, A. FUMIGATUS, YAG media

Observe how each entry below is paired with its result.
[
  {
    "compound": "CCCCOCCC1=NN=C(N)SC1",
    "MIC grade, A. FUMIGATUS, YAG media": "4 (4: <0.2 mg/L)"
  },
  {
    "compound": "N#Cc1ccc(C2=NN=C(N)SC2)cc1",
    "MIC grade, A. FUMIGATUS, YAG media": "1 (1: ≥5 mg/L)"
  },
  {
    "compound": "CCCCc1ccc(COCCC2=NN=C(N)SC2)cc1",
    "MIC grade, A. FUMIGATUS, YAG media": "1 (1: ≥5 mg/L)"
  },
  {
    "compound": "COCCCC1=NN=C(N)SC1",
    "MIC grade, A. FUMIGATUS, YAG media": "4 (4: <0.2 mg/L)"
  },
  {
    "compound": "COCCC1=NN=C(N)SC1",
    "MIC grade, A. FUMIGATUS, YAG media": "3 (3: 0.2-1 mg/L)"
  }
]

Entry under test: NC1=NN=C(CCCCOCc2ccccc2)CS1 . Its MIC grade, A. FUMIGATUS, YAG media was 4 (4: <0.2 mg/L)

Lab note: measured MIC grade, A. FUMIGATUS, YAG media of CCOC(=O)c1cccc(C2=NN=C(N)SC2)c1 was 1 (1: ≥5 mg/L)

MIC grade, A. FUMIGATUS, YAG media in this record for NC1=NNC(c2cccc3ccccc23)=CS1 : 1 (1: ≥5 mg/L)

Notebook: CCCCc1cccc(COCCCCC2=NN=C(N)SC2)c1 , MIC grade, A. FUMIGATUS, YAG media read as 1 (1: ≥5 mg/L)

Record NC1=NN=C(CCCCOCc2cc(Cl)cc(Cl)c2)CS1 , field MIC grade, A. FUMIGATUS, YAG media: 3 (3: 0.2-1 mg/L)

# MIC grade, A. FUMIGATUS, YAG media (compound: NC1=NN=C(CCOc2ccc(Br)cc2)CS1 ) is 4 (4: <0.2 mg/L)

Notebook: COCCCCOCCC1=NN=C(N)SC1 , MIC grade, A. FUMIGATUS, YAG media read as 3 (3: 0.2-1 mg/L)

The recorded MIC grade, A. FUMIGATUS, YAG media for entry NC1=NN=C(CCCCSCc2ccc(Cl)cc2)CS1 equals 3 (3: 0.2-1 mg/L)

Given item NC1=NN=C(CCCCCOc2ccccc2)CS1 , the value recorded as its MIC grade, A. FUMIGATUS, YAG media is 4 (4: <0.2 mg/L)

// CCCCCOc1ccc(CCC2=NN=C(N)SC2)cc1 : MIC grade, A. FUMIGATUS, YAG media value = 1 (1: ≥5 mg/L)

Form: compound = NC1=NN=C(CCCCOCc2ccccc2C(F)(F)F)CS1 ; MIC grade, A. FUMIGATUS, YAG media = 3 (3: 0.2-1 mg/L)

CCOC(=O)CC1=NN=C(N)SC1 has a reported MIC grade, A. FUMIGATUS, YAG media of 2 (2: 1-5 mg/L)
